# System: Candida albicans
# protocol_summary: Minimum inhibitory concentration to inhibit 90 to 100% visible growth of Candida albicans
# Type: functional
test_readout: MIC (µg/mL)

I = CC(C)C1=CC2CC3(C=O)C4CC[C@@H](C)C4CC2(CCOC(=O)c2ccc(F)cc2)C13C(=O)O (some centres undefined)
II = CC(C)C1=CC2CC3(C=O)C4CC[C@@H](C)C4CC2(CCOC(=O)C2CCN(C(=O)OC(C)(C)C)CC2)C13C(=O)O (some centres undefined)
III = CC(C)CCC(O)C12C[C@@H]3[C@H](C)CC[C@H]3C3(C=O)CC1C=C(C(C)C)[C@@]23C(=O)O (some centres undefined)
Lookup: # sort list by recorded MIC, greatest to least Order the labels as requested and list them.
Found: III, II, I
